The following molecules are listed with their measured TGI values.
System: UACC-257 melanoma
Test: NCI tumour cell line growth inhibition, 48 h

CN1C(=O)N(C)C2C1NN=c1s/c(=C\c3ccccc3F)c(=O)n12 (stereo unspecified)
> 100 µM
S=C(N/N=C/c1ccccc1)NC12CC3CC(CC(C3)C1)C2
> 100 µM

q: Returns the measured TGI for the input molecule. Input: O=C(O)CSc1ccc2[nH]c3ccccc3c(=O)c2c1
a: > 100 µM

q: If you can, please state the reported TGI value of CCOc1ccc2nc(S/C(=C/C=C(C#N)C#N)c3ccc(Cl)cc3)sc2c1 .
a: 22.1 µM

* * *

Test system: LOX IMVI melanoma
Assay: NCI tumour cell line growth inhibition, 48 h; in the data active means GI50 below about 0.43 µM; inactive means the rest
# output must be one of 1 (active), 0 (inactive)

Oc1ccccc1N=Cc1c(O)ccc2ccccc12
0
Nc1cc(N)c2nc(-c3ccccc3)c(Sc3ccc(Cl)c(Cl)c3)nc2c1
0
O=C1c2ccccc2C(=O)c2c1ccc(C(Br)Br)c2Cl
0
O=C1/C(=C/c2ccc(O)c(O)c2)COc2ccc(-c3ccccc3)cc21
0

q: Called result for CCOC(=O)C1=C(N)CCC1C (centres undefined)
a: 0

q: Outcome logged for Cc1cc(C(=O)NC(C)(C)C)cc(C#Cc2ccc3c4c(oc3c2)C(C)(C)c2cc(NS(C)(=O)=O)ccc2C4=O)n1 in this assay:
a: 0

q: Which outcome did this test record for the compound Cc1cc(C)c(C#N)c(SCC(=O)c2sc3c(C#N)c(C)cc(C)[n+]3c2[O-])n1 ?
a: 0

q: // param item: CCc1c2c(nc3ccc(OC(=O)NCc4ccc(B5OC(C)(C)C(C)(C)O5)cc4)cc13)-c1cc3c(c(=O)n1C2)COC(=O)[C@]3(O)CC ; yields the recorded call
a: 1

q: For COc1cc(C2C3=C(COC3=O)Oc3cc4c(cc32)OCO4)cc(OC)c1OC (centres undefined) , which call appears in the assay record?
a: 1

q: Assay outcome for O=C(O[C@H]1CN[C@H](C#Cc2cc3ncnc(Nc4ccc5c(cnn5Cc5ccccc5)c4)c3s2)C1)N1CCOCC1 : what was it?
a: 0

q: Would you mind telling me which call this test gave CS(=O)(=O)Nc1ccc(Nc2c3ccccc3nc3cc(N)ccc23)cc1 ?
a: 1

* * *

System: NCI-H522 lung
Assay: NCI tumour cell line growth inhibition, 48 h
# TGI per record follows

q: Could you share which TGI value was measured for CC(C)(OCc1ccccc1)c1ccccc1P(c1ccccc1)c1ccccc1 ?
a: > 100 µM

q: Quick check: TGI of CC1CCN(CCC(=O)CC(c2ccccc2)c2c(O)c3ccccc3oc2=O)CC1 (stereo not drawn) ?
a: > 100 µM

q: Name the reported TGI value associated with the compound COc1ccc2nc3cccc([N+](=O)[O-])c3c(NCCN(C)C)c2c1
a: 0.0487 µM

q: For NC1CCC[C@H]1O (stereo partly drawn) , what is its reported TGI?
a: > 100 µM

q: Entry under review: CCOC(=O)C1=C(N)CCC1C (stereo not drawn) . Reported TGI?
a: > 100 µM

* * *

Tested on: LOX IMVI melanoma
Assay: NCI tumour cell line growth inhibition, 48 h
measure-name: TGI

Reference set (8 entries):
CC(=O)CC(O)(C(F)(F)Cl)C(F)(F)Cl
> 10 µM
CCc1nnc(CC)n1-n1c(Cc2ccccc2)n[nH]c1=O
> 100 µM
OCC#Cc1ccccc1C#CCCCCCCC#Cc1ccccc1C#CCO
34.7 µM
C/C=C(\C)C(=O)O[C@H]1C=CC(=O)O[C@H]1CC[C@H](O)[C@H](C)O
5.66 µM
N#Cc1c(N)nc(NCc2ccccc2)c(C#N)c1-c1ccc(Cl)cc1
29.3 µM
Cn1c(=O)c2c3ccccc3c(C(=O)c3ccccc3)n2c2ccccc21
> 100 µM
CC1=NN(c2nc(N)nc(COCc3nc(N)nc(N4N=C(C)CC4(C)C)n3)n2)C(C)(C)C1
> 100 µM
CC1=NN(c2cccc(Cl)c2)C2(SCC(=O)N2c2nc3ccccc3s2)/C1=C\c1ccccc1 (stereo unspecified)
66.6 µM

q: I'd like to know its TGI. The compound in question is O=C(c1ccc(Cl)c(Cl)c1)N(Cc1cccnc1)C(=S)N(Cc1cccnc1)C(=O)c1ccc(Cl)c(Cl)c1
a: > 100 µM

q: What value of measured TGI is listed for CNc1cc(OCc2ccccc2)c(OC)cc1C(=O)N1CCC[C@H]1CO ?
a: > 100 µM

q: Query (compound): COc1ccc2nc3c([N+](=O)[O-])ccc4c3c(c2c1)N(CCCN(C)C)C(=S)N4CCCN(C)C ; field requested: TGI
a: 14.4 µM

q: Form field: reported TGI of Cc1cccc(-c2nnc3s/c(=C\c4ccc5c(c4)OCO5)c(=O)n23)c1
a: > 100 µM

q: Could you share which TGI value was measured for CC1CC(C)CN(S(=O)(=O)c2cc(Cl)c(Oc3ccc([N+](=O)[O-])cc3Cl)c(Cl)c2)C1 (stereo unspecified) ?
a: > 100 µM

q: Sample CC1=C(C)C(=O)C2=C(OCCO2)C1=O — what was its TGI?
a: 32.9 µM

q: Fill in the blank: the reported TGI of COC(=O)c1nn(-c2ccccc2)c(=O)cc1N=[N+]=[N-] is ____.
a: > 100 µM

q: Report TGI for CC1=CCCC(C)(O)C2CC(CCC3(C)OC3CC1)C(C)C(=O)O2 (stereo unspecified) please.
a: > 100 µM

q: // lookup TGI for COc1ccc2nc(C)cc(NCCCCCCCCCNc3cc(C)nc4ccc(OC)cc34)c2c1
a: 1.99 µM

* * *

System: NCI-H522 lung
Assay: NCI tumour cell line growth inhibition, 48 h; in the data active means GI50 below about 0.43 µM; inactive means the rest
The categories you may choose from are YES for active, NO for inactive

These solved cases illustrate the format of a correct answer.
N#Cc1c(N)nc(NCc2ccccc2)c(C#N)c1-c1ccc(Cl)cc1
NO
CCCN1C(=O)/C(=C/c2cccc(O)c2)SC1=Nc1ccc(OC)cc1
NO
C/C=C(\C)C(=O)O[C@H]1C=CC(=O)O[C@H]1CC[C@H](O)[C@H](C)O
NO
O=C(Nc1ccc(Cl)cc1)Nc1ccc(Oc2nncc3ccccc23)cc1
YES

Next item in the queue.
q: # outcome recorded in this test, key = CC(C)CCC[C@@H](C)[C@H]1CCC2C3=CCn4c(=O)ccc(=O)n4C3CC[C@@]21C (stereo not given in full)
a: NO

* * *

Tested on: K-562 leukemia
Assay: NCI tumour cell line growth inhibition, 48 h
measure-name: TGI

Record excerpt, results attached:
CCOC(=O)c1nc2ccccc2nc1Nc1ccc(Cl)c(Cl)c1
> 100 µM
CNC(=S)N/N=C(\C)c1cc(OC)ccc1O
> 100 µM
CC(NC(=O)C(Cc1ccc(OC(=O)c2ccccc2)cc1)NC(=O)OC(C)(C)C)C(=O)NCC(=O)NC(Cc1ccccc1)NC(=O)OCc1ccccc1 (stereo not drawn)
> 100 µM
Cc1ccc(S(=O)(=O)NC2C(=O)c3ccccc3C(=O)C2n2ccnc2)cc1 (stereo not drawn)
> 100 µM
Oc1ccccc1N=Cc1c(O)ccc2ccccc12
> 100 µM

q: Record request: TGI value, item COc1ccc2cc(C(=O)Nc3ccc(O)c(C(=O)O)c3)ccc2c1OC
a: > 100 µM

q: Item S=C(N/N=C/c1ccccc1)NC12CC3CC(CC(C3)C1)C2 has what recorded TGI?
a: > 100 µM

q: Any idea what TGI was measured for CC(C)OC(=O)c1ccc(CCc2cc(O)c(Br)cc2O)cc1 ?
a: > 58.9 µM

q: What value of TGI has been recorded for this entry: O=C1/C(=C/c2cccc([N+](=O)[O-])c2)N=C(c2ccccc2)N1c1nc2c(Cl)cc(Cl)cc2s1
a: > 100 µM

q: Fill blank: measured TGI of the molecule CC(C)CCC[C@@H](C)[C@H]1CCC2C3=CCn4c(=O)ccc(=O)n4C3CC[C@@]21C (stereo partly drawn) is ____.
a: 2.02 µM

q: Given the entry Cc1cc2c(c(C)c1O)C(C)(C)CN2C(=O)C(C)(C)C , report its measured TGI.
a: > 100 µM

q: Look at this molecule and give its reported TGI. Cc1ccccc1OCC(COC(=O)Nc1ccccc1)OC(=O)Nc1ccccc1 (stereo not drawn)
a: 27.8 µM

q: Fill blank: measured TGI of the molecule COc1ccc2nccc(NCCCN3CCN(CCCNc4ccnc5ccc(OC)cc45)CC3)c2c1 is ____.
a: 0.526 µM

q: // lookup TGI for CCC(=O)O[C@H]1CC[C@H]2[C@@H]3CCC4=CC(=O)C=C[C@]4(O)[C@H]3CC[C@]12C
a: > 100 µM

q: Give its TGI value. Item: C/C=C(\C)C(=O)O[C@H]1C=CC(=O)O[C@H]1CC[C@H](O)[C@H](C)O
a: 8.72 µM

q: Fill blank: measured TGI of the molecule c1ccc2c(c1)c(N1CCCCC1)cc1nc3c(cc(N4CCCCC4)c4ccccc43)nc12 is ____.
a: > 100 µM

q: Which TGI value is on record for CC1C2C=CC1C(c1c3ccc(=O)c(O)c-3oc3c(O)c(O)ccc13)C2C(=O)O (stereo not drawn) ?
a: 45.8 µM

q: Look at this molecule and give its reported TGI. C=CS(=O)(=O)c1c2cc(OC)ccc2nc2ccc(OC)cc12
a: > 23.4 µM

q: Record request: TGI value, item N#CC(C#N)N=Nc1ccc(-c2nc3ccccc3[nH]2)cc1
a: > 100 µM
